assay: small-molecule binders of probe aNOTCH3, primary screen, biochemical, small-molecule microarray, 635/667 nm fluorescence (AID 1120); conditions: higher = more signal;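 also: probe is a biotin-tagged antibody raised against NOTCH3 rather than NOTCH3 protein; score merges spot fluorescence near 667 nm with spot signal to noise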
Lab note: compare composite z-score against 0.2. Equal or greater, write 1. Smaller, write -1.

Consider the following illustrative entries.
1) CCc1oc(CC[C@@H](CO)NC(=O)NCCn2cc(C3(O)CCCCC3)nn2)c(C(=O)OC)c1C(=O)OC = 1
2) C#CCN(CC=C(C)C)[C@H](CO)c1ccccc1 = -1
3) CN1C(=O)C2C=CC(C(O)C3=C[C@H]4C[C@@H](C3)C4(C)C)N(Nc3ccccc3)C2C1=O (stereo partly specified) = -1

Is composite z-score at least 0.2? Consider O=C(NCc1ccc(F)cc1)[C@H]1C[C@H]2C(=O)N[C@@H](Cc3ccccc3)C(=O)N2[C@H]1c1ccc(O)cc1 -1

Same question for COc1cc2c(cc1OC)CN(C(=O)[C@@H]1[C@H]3C(=O)O[C@H](c4ccccc4)[C@H](c4ccccc4)N3[C@H](c3ccc(O)cc3)[C@@]13C(=O)Nc1ccc(C#CC4(O)CCCCCC4)cc13)CC2 please. -1

Same question for COCCCNC(=O)[C@@]1(Cc2ccccc2)N=C(c2ccc(OCCCO)cc2)O[C@H]1c1ccccc1 please. 1

The reported numbers originate from PubChem BioAssay.
